Experiment: Evaluation of solid-state stability (60° C., four weeks, air-tightly)
Type: physicochemical
Conditions: stored air-tightly at 60° C. for four weeks; powder X-ray diffraction and TG-DTA

Molecule: CN(c1ccc(/C=C/C[C@H](NC(=O)c2c(Cl)cccc2Cl)C(=O)O)cc1)c1ncccn1 [Form A]
Crystal form after 4 weeks: Form B

Molecule: CN(c1ccc(/C=C/C[C@H](NC(=O)c2c(Cl)cccc2Cl)C(=O)O)cc1)c1ncccn1 [Form B]
Crystal form after 4 weeks: Form B

====

Assay: Evaluation of moisture absorption (equilibrium moisture regain)
Type: physicochemical
Settings: relative humidity increased from 5% to 95%, 25° C.
Property label: Weight increase (%)

Compound: CN(c1ccc(/C=C/C[C@H](NC(=O)c2c(Cl)cccc2Cl)C(=O)O)cc1)c1ncccn1 [Form A]
Uom: %
Weight increase: 3.4
//
Compound: CN(c1ccc(/C=C/C[C@H](NC(=O)c2c(Cl)cccc2Cl)C(=O)O)cc1)c1ncccn1 [Form D]
Uom: %
Weight increase: 1.0

1. CN(c1ccc(/C=C/C[C@H](NC(=O)c2c(Cl)cccc2Cl)C(=O)O)cc1)c1ncccn1 [Form E]
2. CN(c1ccc(/C=C/C[C@H](NC(=O)c2c(Cl)cccc2Cl)C(=O)O)cc1)c1ncccn1 [Form B]
Q: // compare measured Weight increase, left 1 , right 2 , return larger Use the label to indicate which entry you chose.
Result: 2

====

Assay: Evaluation of solid-state stability (60° C., four weeks, air-tightly)
Type: physicochemical
Conditions: HPLC, stored air-tightly at 60° C. for four weeks
Property label: Purity [%] After 4 weeks (%)

Compound: CN(c1ccc(/C=C/C[C@H](NC(=O)c2c(Cl)cccc2Cl)C(=O)O)cc1)c1ncccn1 [Form D]
Purity [%] After 4 weeks [%]: 98.0
//
Compound: CN(c1ccc(/C=C/C[C@H](NC(=O)c2c(Cl)cccc2Cl)C(=O)O)cc1)c1ncccn1 [Form E]
Purity [%] After 4 weeks [%]: 96.9
//
Compound: CN(c1ccc(/C=C/C[C@H](NC(=O)c2c(Cl)cccc2Cl)C(=O)O)cc1)c1ncccn1 [Form B]
Purity [%] After 4 weeks [%]: 99.8
//
Compound: CN(c1ccc(/C=C/C[C@H](NC(=O)c2c(Cl)cccc2Cl)C(=O)O)cc1)c1ncccn1 [Form A]
Purity [%] After 4 weeks [%]: 97.5
//
Compound: CN(c1ccc(/C=C/C[C@H](NC(=O)c2c(Cl)cccc2Cl)C(=O)O)cc1)c1ncccn1 [Amorphous]
Purity [%] After 4 weeks [%]: 92.0
//
Compound: CN(c1ccc(/C=C/C[C@H](NC(=O)c2c(Cl)cccc2Cl)C(=O)O)cc1)c1ncccn1 [Form C]
Purity [%] After 4 weeks [%]: 98.9

====

Test: Evaluation of solid-state stability (60° C., four weeks, air-tightly)
Format: physicochemical
Settings: HPLC, before storage
Property label: Purity [%] Initial value (%)

Compound: CN(c1ccc(/C=C/C[C@H](NC(=O)c2c(Cl)cccc2Cl)C(=O)O)cc1)c1ncccn1 [Form A]
Uom: %
Purity [%] Initial value: 97.3
//
Compound: CN(c1ccc(/C=C/C[C@H](NC(=O)c2c(Cl)cccc2Cl)C(=O)O)cc1)c1ncccn1 [Form B]
Uom: %
Purity [%] Initial value: 99.8
//
Compound: CN(c1ccc(/C=C/C[C@H](NC(=O)c2c(Cl)cccc2Cl)C(=O)O)cc1)c1ncccn1 [Form E]
Uom: %
Purity [%] Initial value: 96.6
//
Compound: CN(c1ccc(/C=C/C[C@H](NC(=O)c2c(Cl)cccc2Cl)C(=O)O)cc1)c1ncccn1 [Form C]
Uom: %
Purity [%] Initial value: 98.9
//
Compound: CN(c1ccc(/C=C/C[C@H](NC(=O)c2c(Cl)cccc2Cl)C(=O)O)cc1)c1ncccn1 [Form D]
Uom: %
Purity [%] Initial value: 98.0
//
Compound: CN(c1ccc(/C=C/C[C@H](NC(=O)c2c(Cl)cccc2Cl)C(=O)O)cc1)c1ncccn1 [Amorphous]
Uom: %
Purity [%] Initial value: 95.8
